Recorded IC50, one value per entry.
Molecular target: Muscarinic acetylcholine receptor M4 (Homo sapiens, UniProt P08173)
Sequence (P08173 whole entry): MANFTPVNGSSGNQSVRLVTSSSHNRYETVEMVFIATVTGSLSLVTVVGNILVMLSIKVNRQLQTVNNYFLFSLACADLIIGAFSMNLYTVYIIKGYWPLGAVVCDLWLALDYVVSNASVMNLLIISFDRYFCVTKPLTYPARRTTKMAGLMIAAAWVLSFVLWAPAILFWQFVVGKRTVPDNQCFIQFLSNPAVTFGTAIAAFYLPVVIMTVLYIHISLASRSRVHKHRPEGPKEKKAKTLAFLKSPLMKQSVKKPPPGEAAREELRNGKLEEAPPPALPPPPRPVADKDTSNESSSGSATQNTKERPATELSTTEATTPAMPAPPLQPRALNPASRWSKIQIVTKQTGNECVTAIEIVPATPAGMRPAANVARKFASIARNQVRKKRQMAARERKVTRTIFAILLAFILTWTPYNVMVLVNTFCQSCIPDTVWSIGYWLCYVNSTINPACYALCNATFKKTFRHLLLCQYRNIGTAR
Assay type: cell membranes, CHO-K1, Membrane
Details: read-out: IC50
Numeric answer only, unit µM assumed.

Compound: Cc1cc(C(C)(C)C)c(O)c(C)c1CC1=NCCN1
Value Unit: µM
IC50: 3.26
//
Compound: CC(CN1c2ccccc2Sc2ccccc21)N(C)C (centres undefined)
Value Unit: µM
IC50: 0.00758
//
Compound: CC1(COc2ccc(CC3SC(=O)NC3=O)cc2)CCCCC1 (centres undefined)
Value Unit: µM
IC50: 16.2

Could you now look at the following compound, please?
// lookup IC50 for CNCCCC12CCC(c3ccccc31)c1ccccc12
0.413

All figures here come from ChEMBL document CHEMBL1909046.
